Measured values drawn from patent US20210363269A1 for this set.

Field: koff. Provide a value for each of the binders that follow.
# TARGET: T1, human SIRP-α v2 D1 domain (human)
# T1 construct: also called human v2
# T1 sequence (chain, as listed by the source limits assumed): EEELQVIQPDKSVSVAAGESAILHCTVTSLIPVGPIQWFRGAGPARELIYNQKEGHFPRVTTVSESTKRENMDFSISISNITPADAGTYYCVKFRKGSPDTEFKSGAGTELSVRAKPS
# EXPERIMENT: SPR, Langmuir fit

# get_value(readout='koff', item= S76 (scFv, V domains shown, also called clone 76) VH: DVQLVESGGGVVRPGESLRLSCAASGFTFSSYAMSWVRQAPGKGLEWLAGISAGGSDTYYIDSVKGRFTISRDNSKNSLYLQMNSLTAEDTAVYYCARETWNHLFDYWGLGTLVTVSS VL: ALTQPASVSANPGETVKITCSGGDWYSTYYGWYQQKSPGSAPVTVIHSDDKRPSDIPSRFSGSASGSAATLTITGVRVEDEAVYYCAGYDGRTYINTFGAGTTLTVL )
0.000209 s⁻¹

Which value of koff has been reported for S22 (scFv, V domains shown, also called clone 22) VH: DVQLVESGGGVVRPGESLRLSCAASGFTFSSYAMSWVRQAPGKGLEWLAGISAGGSDTYYIDSVKGRFTISRRQFQEQSLSPNEPALTAEDTAVYYCARETWNHLFDYWGLGTLVTVSS VL: ALTQPASVSANPGETVKITCSGGDYYSTYYGWYQQKSPGSAPVTVIHSDDKRPSDIPSRFSGSASGSAATLTIAGVRVEDEAVYFCGAYDGRTYINTFGAGTTLTVL in the records?
0.000146 s⁻¹

Item S209 (scFv, V domains shown) VH: DVQLVESGGAVVRPGESLRLSCKASGFTFTNFAMSWVRQAPGEGLEWVSGISGSDDTTYYADSVKGRFTISRDNSESTLYLQMNSLRAEDTAVYYCVKDSTVSWNTFFDYWGLGTLVTVSS VL: ALTQPASVSANLGGTVKITCSGGYGSDDGSSSYYGWYQQKSPGSAPVILIYWDDKRPSDIPSRFSGSTSGSTTTLTITGVQAEDEAVYFCGTYDTSSGAIFGAGTTLTVL has what recorded koff?
0.00401 s⁻¹
